# Test system: hepatitis C replicon
# Assay Method Text: hepatitis C replicon EC50 assay
# Format: cell-based
# Cond: Hepatitis C virus; hepatitis C replicon; read-out: EC50
# Excerpt: NS3-NS4 inhibition activity can be determined using known assay methods.
pEC50: −log10 of the molar value.
Below, each entry is listed alongside its reported pEC50.

CC(C)(C)OC(=O)N[C@H]1CCCCC/C=C\[C@@H]2C[C@@]2(C(=O)NS(=O)(=O)C2(C)CC2)NC(=O)[C@@H]2C[C@@H](Oc3nc(-c4ccccc4)nc4c3CCCC4)CN2C1=O [Compound 302]    > 8.00

Here's the next entry for you.
response.value for CC(C)n1c(O[C@@H]2C[C@H]3C(=O)N[C@]4(C(=O)NS(=O)(=O)C5(C)CC5)C[C@H]4/C=C\CCCCC[C@H](NC(=O)OC(C)(C)C)C(=O)N3C2)nc2c(-c3nc(-c4ccc(Cl)c(Cl)c4)cs3)cccc21 [Compound 107] (field: pEC50) = 7.00 to 8.00
